The following compounds are listed with their measured inhibition of aggregation values.
- test-protocol: reduction of polyQ htt aggregates in cells – imaging, exon1htt(103Q)mCFP cells, high-content imaging, primary screen (AID 483);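 also: compound exposure lasted 3 days before fixation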
- test-context: exon1htt(103Q)mCFP cell line, aggregate imaging, at 2 µM; stronger effect = higher value
Numbers only; they are read as %.

Before answering, review these 2 worked examples.
O=C(Cc1cccs1)N(c1ccccc1)C1C=CS(=O)(=O)C1 (stereo unspecified) ... -21.3
COCCN(C(=O)Cn1nnc2ccccc21)C(C(=O)NC1CCCC1)c1cc(OC)ccc1OC (stereo unspecified) ... 7.8

[ask] inhibition of aggregation for CC12C(=O)N(CCC(=O)O)C(=O)C1C1C=CC2C1 (stereo unspecified) ?
[reply] 3.1

[ask] inhibition of aggregation for "O=C(CCn1c(=O)c2ccccc2n(CC(=O)NCCC2=CCCCC2)c1=O)NCc1ccco1" ?
[reply] 25.7

[ask] inhibition of aggregation for "O=C(CSc1nc2cc(Cl)ccc2s1)N1CCN(C(=O)c2ccco2)CC1" ?
[reply] 15.7

[ask] inhibition of aggregation for "COc1ccc(CCNC(=O)CN(c2ccccc2OC)S(C)(=O)=O)cc1" ?
[reply] 33.6

* * *

The following molecules are listed with their measured nuclei count values.
- test-protocol: endothelial E-selectin expression blockers – imaging, HUVEC, immunofluorescence, MLSMR starter and 10KST1 sets, primary screen (AID 487);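 also: 100% = median nuclei count of all wells on the same plate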
- test-context: HUVEC TNFalpha-induced E-selectin immunofluorescence imaging, at 2 µM; measured here: cell number, toxicity

CC(NS(=O)(=O)c1ccc(OCC(=O)N2CCOCC2)c(Cl)c1)c1ccccc1 (stereo unspecified) ... 76.7%

[ask] nuclei count for "Cc1ccc(S(=O)(=O)N2CCN(C(=O)c3cc(=O)[nH]c4ccccc34)CC2)c(C)c1" ?
[reply] 162%

[ask] nuclei count for "Cc1noc(C)c1C(=O)N1CCN(C(=O)c2sc3cc(Cl)ccc3c2Cl)CC1" ?
[reply] 100%

[ask] nuclei count for "COCCCNC(=O)CCCn1c(=O)c2ccccc2n(CC(=O)Nc2c(C)cccc2C)c1=O" ?
[reply] 99.1%

[ask] nuclei count for "COC(=O)c1c(N)n(-c2cc(OC)cc(OC)c2)c2nc3ccccc3nc12" ?
[reply] 80%

[ask] nuclei count for COC(=O)CCC(NC(=O)c1cc(-c2ccc3c(c2)OCCO3)oc1C)C(=O)OC (stereo unspecified) ?
[reply] 104%

[ask] nuclei count for "CCOc1ccc2ccccc2c1/C=N/n1cncn1" ?
[reply] 120%

[ask] nuclei count for "Cc1csc(NC(=O)CCS(=O)(=O)c2ccc(Br)cc2)n1" ?
[reply] 115%

[ask] nuclei count for "NC(=O)C1CCN(c2nc(-c3ccccc3)nc3ccccc23)CC1" ?
[reply] 92.8%

[ask] nuclei count for COc1ccccc1C(=O)N1CCNC(=O)C1CC(=O)Nc1ccc(Cl)cc1 (stereo unspecified) ?
[reply] 123%

* * *

- test-protocol: TLR3 IRF3 reporter activation blockers – cell-based, poly I:C stimulus, luciferase, 10K MLSCN set, primary screen (AID 602277)
- test-context: HEK293-TLR3 RL24 IRF3 luciferase reporter, at 10 µM, stronger effect = higher value
Calls of active or inactive are those of the source.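 Rule for the calls: active = inhibition of the reporter signal at or above 50%; inactive = inhibition below 50%.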
observable: inhibition

Before answering, review these 5 worked examples.
O=C1c2ccccc2-c2ccc(C(=O)N3CCOCC3)cc21 ... -1.97% (inactive)
CC(=O)c1ccc(N2CCN(C(=O)c3cc(C)on3)CC2)cc1 ... -0.354% (inactive)
Cc1cc(C)c(C(=O)Nc2ccc(S(=O)(=O)Nc3onc(C)c3C)cc2)c(C)c1 ... 22.1% (inactive)
CCOc1ccccc1N1CCN(S(=O)(=O)c2cccc3nsnc23)CC1 ... 18.5% (inactive)
CCOC(=O)c1c2n(c3ccc(O)cc13)CCCCC2 ... 1.43% (inactive)

Read the next record carefully.
[ask] inhibition for "N#Cc1cnc2sc3ccccc3n2c1=N" ?
[reply] -37.6% (inactive)

Data credit: PubChem BioAssay
